assay protocol: self-splicing fitness, log relative to wild type (ln ratio); higher = more splicing; Tetrahymena group I intron in knt gene, E. coli kanamycin selection, DiMSum; sequences stand for … in CUCUCU…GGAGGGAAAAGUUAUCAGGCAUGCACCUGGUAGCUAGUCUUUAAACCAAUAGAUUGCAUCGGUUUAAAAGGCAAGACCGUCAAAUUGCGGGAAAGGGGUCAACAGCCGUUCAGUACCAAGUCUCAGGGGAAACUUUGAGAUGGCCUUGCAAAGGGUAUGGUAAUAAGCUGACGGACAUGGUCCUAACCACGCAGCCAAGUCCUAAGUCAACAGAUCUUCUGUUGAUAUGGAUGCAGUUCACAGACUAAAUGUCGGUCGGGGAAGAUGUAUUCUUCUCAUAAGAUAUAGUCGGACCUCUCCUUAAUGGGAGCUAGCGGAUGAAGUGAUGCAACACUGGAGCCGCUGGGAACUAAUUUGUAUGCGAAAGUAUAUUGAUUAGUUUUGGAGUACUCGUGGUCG;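 also: selection with 25 µg/mL kanamycin versus none on LB agar overnight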
settings: 30 °C
experimental endpoint: self-splicing fitness (ln)

{"sequence entry": "UUGGAGCAAUAUUACGUAAU", "obs value": -3.28}
{"sequence entry": "CCUGAGCAAUAUUACGCAGA", "obs value": -3.44}
{"sequence entry": "AUGCAGCAAUAUUACGCCGG", "obs value": -1.72}
{"sequence entry": "AUGGAGCAAUAUUACGACUU", "obs value": -1.73}
{"sequence entry": "UACCAGCAAUAUUACGUUAU", "obs value": -2.97}
{"sequence entry": "GAGAAGCAAUAUUACGUAGU", "obs value": -2.89}
{"sequence entry": "UCUAAGCAAUAUUACGAGAA", "obs value": -3.17}
{"sequence entry": "CAACAGCAAUAUUACGGGUG", "obs value": -1.65}

Where do the numbers come from? From the supplement of paper PMC7877785.
